Target: EPHB2 (UniProt P29323)
Sequence (P29323 whole entry, looked up): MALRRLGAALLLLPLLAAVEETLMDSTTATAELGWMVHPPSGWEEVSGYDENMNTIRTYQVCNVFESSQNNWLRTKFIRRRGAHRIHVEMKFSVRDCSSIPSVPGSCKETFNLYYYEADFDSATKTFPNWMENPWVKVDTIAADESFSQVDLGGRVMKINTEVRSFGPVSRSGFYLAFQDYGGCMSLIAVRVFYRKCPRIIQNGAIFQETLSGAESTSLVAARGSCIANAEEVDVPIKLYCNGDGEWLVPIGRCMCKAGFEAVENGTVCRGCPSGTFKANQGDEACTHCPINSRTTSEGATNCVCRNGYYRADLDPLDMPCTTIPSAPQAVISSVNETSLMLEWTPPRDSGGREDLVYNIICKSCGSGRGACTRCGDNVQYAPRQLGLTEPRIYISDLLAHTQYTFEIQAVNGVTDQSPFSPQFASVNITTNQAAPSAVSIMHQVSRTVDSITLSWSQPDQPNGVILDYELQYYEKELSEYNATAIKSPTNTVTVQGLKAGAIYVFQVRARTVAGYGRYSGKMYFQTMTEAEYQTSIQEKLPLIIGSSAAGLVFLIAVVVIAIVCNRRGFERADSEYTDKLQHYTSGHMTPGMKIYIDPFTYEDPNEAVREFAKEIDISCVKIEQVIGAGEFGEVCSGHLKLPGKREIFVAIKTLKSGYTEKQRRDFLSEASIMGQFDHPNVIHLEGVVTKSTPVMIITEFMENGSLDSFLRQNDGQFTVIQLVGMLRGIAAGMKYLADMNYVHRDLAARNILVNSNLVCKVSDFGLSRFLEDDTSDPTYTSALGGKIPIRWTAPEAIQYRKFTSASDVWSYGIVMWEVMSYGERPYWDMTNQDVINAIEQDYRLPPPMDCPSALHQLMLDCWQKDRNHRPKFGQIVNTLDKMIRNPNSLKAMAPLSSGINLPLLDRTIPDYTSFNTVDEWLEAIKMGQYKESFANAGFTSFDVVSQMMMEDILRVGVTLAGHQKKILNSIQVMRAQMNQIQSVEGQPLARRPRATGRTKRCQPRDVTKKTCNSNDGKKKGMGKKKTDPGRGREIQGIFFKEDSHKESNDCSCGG
Assay: phosphorylation enrichment, bacterial display (enrichment ratio); higher = better substrate or ligand; peptides without Tyr show the background;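 further: 11-residue human phosphosite peptides and single-mutation variants displayed on the E. coli surface, counted by deep sequencing, each peptide's frequency after selection divided by its frequency in the unselected input library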;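 further: frequency after pTyr selection over input frequency; kinase dosed for 20-30% of maximal phosphorylation in three min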
Parameter: phosphorylation enrichment. Scope: all listed entries.
value_kind: phosphorylation enrichment

- macromolecule_sequence: "EYRFIYMAVQH [PTPN11_Y515_Q510E]"
  experimental_result: 1.02
- macromolecule_sequence: "TVSSDYLHPQY [CCPG1_Y569_F566S]"
  experimental_result: 0.531
- macromolecule_sequence: "GVRLYYRVRES [RB1_Y454_M457R]"
  experimental_result: 0.447
- macromolecule_sequence: "FFLGKYLQEVL [KLB_Y910_YF]"
  experimental_result: 0.474
- macromolecule_sequence: "QYKGKYLAKHN [CASK_Y712_D710G]"
  experimental_result: 0.699
- macromolecule_sequence: "VQNIVYRTASI [CYP39A1_Y102]"
  experimental_result: 0.396
- macromolecule_sequence: "QDKDLYPCPGT [RLF_Y671_R668K]"
  experimental_result: 0.857
